Numbers sourced from PubChem BioAssay (NCI).

- Tested on: LOX IMVI melanoma
- protocol-notes: NCI-60 one-dose screen, 48 h (100 = growth as untreated, 0 = no growth, -100 = all killed)
- measurement-parameters: 10 µM unless noted
This is part of a sample that, as a whole, favours compounds with a hit. Of some 83,000 tested, about 20% had one in any assay.
endpoint: growth (%)
Numeric only. Scale: %

Inquiry: Which growth reading was recorded for the molecule NC(=S)Nc1cccc(O)c1 ?
Reply text: 87.8

Inquiry: Item C[C@@H]1N=C(c2ccc3ccccc3n2)Nc2nc3ccccn3c2C1=O has what recorded growth?
Reply text: 93

Inquiry: Can you look up the measured growth of CCN(CC)CCCNc1ccc(Nc2ccc(OC)cc2)cc1 for me?
Reply text: 86.4

###

- Tested on: BT-549 breast
- protocol-notes: NCI-60 one-dose screen, 48 h (100 = growth as untreated, 0 = no growth, -100 = all killed)
- measurement-parameters: 10 µM unless noted
Compounds without any hit were thinned out: in the full panel of roughly 83,000, 20% have a hit.
endpoint: growth (%)
Provide only the numeric value, understood in %.

Inquiry: Which growth is reported with BT-549 breast for this entry: COc1ccc2cc(-c3cc(OC)c(OC)c(OC)c3)c(=O)oc2c1 ?
Reply text: 50.1

Inquiry: Return growth measured with BT-549 breast given this molecule: N#C/C(=C\c1ccc(Br)cc1)n1nnc2cc(F)c(F)cc21
Reply text: 22.2

Inquiry: Fill in the recorded growth for this molecule, with BT-549 breast as test system: COc1ccc(NC(=O)c2nc(-c3cc(OC)c(OC)c(OC)c3)n(-c3cccc4ccccc34)n2)cc1OC
Reply text: 46.3

Inquiry: // lookup growth | system=BT-549 breast | key= Cc1cc(NCCCCNc2ccnc3cc(Cl)ccc23)nc(Nc2ccc(C(=O)N3CCCC3)cc2)n1
Reply text: 93.2

Inquiry: Return growth measured with BT-549 breast given this molecule: CC(=O)N1N=C(c2ccc(Nc3nc(Nc4ccc(F)cc4)nc(Nc4ccc(F)cc4)n3)cc2)CC1c1cccc([N+](=O)[O-])c1 (stereo not given)
Reply text: 102

###

- Tested on: SF-539 CNS
- protocol-notes: NCI-60 one-dose screen, 48 h
- measurement-parameters: 10 µM unless noted
About 83,000 compounds went through this panel and 20% of them were active in at least one assay; those are over-represented in the sample as a whole. The source made the active and inactive calls. How the source made its calls: active means growth percent below 10; inactive means the rest.
Result category, one only: True for active, False for inactive

Inquiry: Would you mind telling me which call this test gave Cc1ccc(C(=O)C2=C(O)C(=O)N(Cc3cccnc3)C2c2ccccc2F)o1 (stereo not drawn) ?
Reply text: False

Inquiry: Test call for this molecule, please: c1c[nH]c(CNC2CCCCC2)c1
Reply text: False

Inquiry: Per the records of this test, what outcome belongs to CCN1CCN(c2nc(C)cc(NCc3cc(Nc4ccnc5cc(Cl)ccc45)ccc3F)n2)CC1 ?
Reply text: True

Inquiry: Kindly provide the recorded test outcome for the following molecule: Cc1cccc(NC(=O)N/C(N)=N/c2nc(C)c(C)s2)c1
Reply text: False

Inquiry: For Cc1c(C(=O)NC(Cc2ccccc2)C(O)C(=O)NCc2ccc(F)cc2)[nH]c2ccccc2c1=O (stereo not drawn) , which call appears in the assay record?
Reply text: False

Inquiry: Any idea what this test logged for O=c1cc(C2NNC(=S)N2)c2ccc3ccccc3c2o1 (stereo not drawn) ?
Reply text: False

Inquiry: Answer briefly: the call reported for Cc1cc(NCc2cc(Nc3ccnc4cc(Cl)ccc34)ccc2F)nc(N2CCN(c3ccccc3)CC2)n1 in this assay.
Reply text: False

Inquiry: State the result this test recorded for COC(=O)[C@]12CC[C@@H](C)[C@H](C)[C@@H]1C1=CC[C@@H]3[C@@]4(C)C(C=O)=C[C@@](C)(COC(=O)c5ccco5)C4=CC[C@@]3(C)[C@]1(C)CC2 .
Reply text: True

Inquiry: Hi, sorry to bother you, what did the test record for Cc1ccc(S(=O)(=O)n2cc(CNc3ccc(N4CCOCC4=O)cc3)c3ccccc32)cc1 ?
Reply text: False

Inquiry: Fill in: this test's call for COc1cc2nc(Cl)nc(Nc3ccc(S(=O)(=O)Nc4nccs4)cc3)c2cc1OC is ___
Reply text: False

Inquiry: // outcome(item) with item = COc1ccc(C(=O)COc2ccc(/C=C3\Oc4ccccc4C3=O)cc2)cc1
Reply text: False

Inquiry: Assay outcome for COc1cc(/C=N/Nc2ncc(-c3cc4cc5c(cc4o3)OCO5)s2)cc(OC)c1OC : what was it?
Reply text: False

Inquiry: // param item: COc1cccc(Nc2nccc(Nc3ccc4[nH]ncc4c3)n2)c1 ; yields the recorded call
Reply text: False

Inquiry: Would you mind telling me which call this test gave COc1ccc2c(c1)O/C(=C\c1cccc(OCC(=O)Nc3nc4ccccc4s3)c1)C2=O ?
Reply text: False

Inquiry: Identify the outcome logged in this assay for the molecule shown: COc1ccc2c(c1)O/C(=C/c1ccc(OCC(=O)c3ccccc3)cc1)C2=O
Reply text: False

Inquiry: Status in this test for C=CCNc1nc(NN2C(=O)c3cccc4cccc(c34)C2=O)nc(-n2cnc3ccccc32)n1 ?
Reply text: False

Inquiry: Kindly provide the recorded test outcome for the following molecule: COc1ccc(-c2nc(SCCC(C)C)nc(N/N=C\c3cccc([N+](=O)[O-])c3)c2C#N)cc1
Reply text: False

Inquiry: I'd appreciate the recorded outcome for c1coc(-c2c3ccc(=[N+]4CCCCC4)cc-3oc3cc(N4CCCCC4)ccc23)c1 from this test.
Reply text: True
